# Test system: OVCAR-5 complex spheroids with HUVEC/MSC, viability, % test/control
# Assay remarks: Anticancer human tumor OVCAR-5 cell line growth inhibition [AhR];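 further: spheroids exposed to compounds for 7 days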;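 on viability, T/C: 100% = DMSO vehicle control wells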
# Experimental setup: second compound 1 µM; first compound 0.1 µM; stronger effect = lower value
Property: viability, T/C; scope: individual molecules
Property: viability, T/C

Molecule	Experimental value
COc1cccc2c1C(=O)c1c(O)c3c(c(O)c1C2=O)CC(O)(C(=O)CO)CC3OC1CC(N)C(O)C(C)O1 (stereo not drawn) + CC(CO)NC(=O)c1cc(-c2ccc(Cl)cc2)nn(-c2cnn(C)c2)c1=O	71.5%
COc1cc(Nc2ncc3c(n2)-c2ccc(Cl)cc2C(c2c(F)cccc2OC)=NC3)ccc1C(=O)O + Cc1ccccc1N=Nc1ccc(NC(=O)c2ccnn2C)c(C)c1	87.8%
CC1COCCN1c1cc(-c2ccnn2C)c2ccnc(-c3ccn[nH]3)c2n1 (stereo not drawn) + CC(CO)NC(=O)c1cc(-c2ccc(Cl)cc2)nn(-c2cnn(C)c2)c1=O	89%

---

# System: OVCAR-5 complex spheroids with HUVEC/MSC, viability, % test/control
# Assay remarks: Anticancer human tumor OVCAR-5 cell line growth inhibition [AhR];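 further: spheroids exposed to compounds for 7 days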;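 on viability, T/C: 100% = DMSO vehicle control wells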
# Experimental setup: second compound 0.316 µM; first compound 0.001 µM; stronger effect = lower value
Property: viability, T/C; scope: individual compounds

Compound	Tested on	viability, T/C [%]
CC[C@@]1(O)C(=O)OCc2c1cc1n(c2=O)Cc2cc3c(CN(C)C)c(O)ccc3nc2-1 + Cc1ccccc1N=Nc1ccc(NC(=O)c2ccnn2C)c(C)c1	OVCAR-5 complex spheroids with HUVEC/MSC, viability, % test/control	103
CC[C@@]1(O)C(=O)OCc2c1cc1n(c2=O)Cc2cc3c(CN(C)C)c(O)ccc3nc2-1 + CC(CO)NC(=O)c1cc(-c2ccc(Cl)cc2)nn(-c2cnn(C)c2)c1=O	OVCAR-5 complex spheroids with HUVEC/MSC, viability, % test/control	110
CC[C@@]1(O)C(=O)OCc2c1cc1n(c2=O)Cc2cc3c(CN(C)C)c(O)ccc3nc2-1 + Cc1cncc(-c2nc(NCCc3c[nH]c4ccccc34)c3ncn(C(C)C)c3n2)c1	OVCAR-5 complex spheroids with HUVEC/MSC, viability, % test/control	100
Cn1ncnc1C1c2n[nH]c(=O)c3cc(F)cc(c23)NC1c1ccc(F)cc1 (stereo not given) + CC(CO)NC(=O)c1cc(-c2ccc(Cl)cc2)nn(-c2cnn(C)c2)c1=O	OVCAR-5 complex spheroids with HUVEC/MSC, viability, % test/control	110
Cn1ncnc1C1c2n[nH]c(=O)c3cc(F)cc(c23)NC1c1ccc(F)cc1 (stereo not given) + Cc1ccccc1N=Nc1ccc(NC(=O)c2ccnn2C)c(C)c1	OVCAR-5 complex spheroids with HUVEC/MSC, viability, % test/control	110

---

# Tested on: OVCAR-5 complex spheroids with HUVEC/MSC, viability, % test/control
# Assay remarks: Anticancer human tumor OVCAR-5 cell line growth inhibition [AhR];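 further: spheroids exposed to compounds for 7 days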
# Experimental setup: curve of first compound; second compound 3.16 µM
pIC50: −log10 of the molar value.

Molecule	pIC50
Cn1ncnc1C1c2n[nH]c(=O)c3cc(F)cc(c23)NC1c1ccc(F)cc1 (stereo not drawn) + Cc1ccccc1N=Nc1ccc(NC(=O)c2ccnn2C)c(C)c1	< 7.00
Nc1ncn(C2CC(O)C(CO)O2)c(=O)n1 (stereo not drawn) + Cc1cncc(-c2nc(NCCc3c[nH]c4ccccc34)c3ncn(C(C)C)c3n2)c1	< 6.00
Cn1ncnc1C1c2n[nH]c(=O)c3cc(F)cc(c23)NC1c1ccc(F)cc1 (stereo not drawn) + CC(CO)NC(=O)c1cc(-c2ccc(Cl)cc2)nn(-c2cnn(C)c2)c1=O	< 7.00
Nc1ncn(C2CC(O)C(CO)O2)c(=O)n1 (stereo not drawn) + CC(CO)NC(=O)c1cc(-c2ccc(Cl)cc2)nn(-c2cnn(C)c2)c1=O	< 6.00
CCN(c1cc(-c2ccc(CN3CCOCC3)cc2)cc(C(=O)NCc2c(C)cc(C)[nH]c2=O)c1C)C1CCOCC1 + Cc1cncc(-c2nc(NCCc3c[nH]c4ccccc34)c3ncn(C(C)C)c3n2)c1	< 5.52
CC(C)c1c(-c2ccccc2)nc2c(C#N)c[nH]n2c1=O + CC(CO)NC(=O)c1cc(-c2ccc(Cl)cc2)nn(-c2cnn(C)c2)c1=O	< 5.00
CC1(C)CCC(CN2CCN(c3ccc(C(=O)NS(=O)(=O)c4ccc(NCC5CCOCC5)c([N+](=O)[O-])c4)c(Oc4cnc5[nH]ccc5c4)c3)CC2)=C(c2ccc(Cl)cc2)C1 + Cc1cncc(-c2nc(NCCc3c[nH]c4ccccc34)c3ncn(C(C)C)c3n2)c1	< 5.00
Nc1ccn(C2OC(CO)C(O)C2(F)F)c(=O)n1 (stereo not drawn) + Cc1cncc(-c2nc(NCCc3c[nH]c4ccccc34)c3ncn(C(C)C)c3n2)c1	> 7.50

The reported numbers originate from PubChem BioAssay AID1919015.
